B1: glmS ribozyme (parent)
chain: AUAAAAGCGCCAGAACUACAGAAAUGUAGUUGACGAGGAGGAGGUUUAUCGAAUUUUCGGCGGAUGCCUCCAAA

Variants of: B1
Test Summary: self-cleavage kobs at 160 uM GlcN6P; higher = faster cleavage; RNA array
Applied Conditions: with glucosamine-6-phosphate
This sample holds only a part of the variants without activity.
// self-cleavage kobs at 160 uM GlcN6P lookup, one value per entry

Worked cases, self-cleavage kobs at 160 uM GlcN6P given:
U55G G66A	0.000877 s⁻¹
C58A G62C	< 1e-05 s⁻¹

Need self-cleavage kobs at 160 uM GlcN6P of G41C A52C G60A G63A G66A C68U , thanks.
< 1e-05 s⁻¹

Need self-cleavage kobs at 160 uM GlcN6P of A36G A52G , thanks.
< 1e-05 s⁻¹
